test: inhibitors of poly I:C-induced TLR3 signaling, primary screen, cell-based, poly I:C stimulus, luciferase, 10K MLSCN set (AID 602277); settings: HEK293-TLR3 RL24 IRF3 luciferase reporter, at 10 µM, hits give high values

- Compound: "CCOc1ccc2[nH]c(=O)c(C(c3nnnn3Cc3ccco3)N3CCC(C)CC3)cc2c1 (configuration not stated)"
  Unit abbreviation: "%"
  inhibition: 20.5
- Compound: "O=C(c1ccco1)N1CCN(CCCCN2C(=O)c3ccccc3C2=O)CC1"
  Unit abbreviation: "%"
  inhibition: 36.3
- Compound: "Cc1nc2ccc(NC(=O)NCc3ccco3)cc2s1"
  Unit abbreviation: "%"
  inhibition: -83.4
- Compound: "CCOC(=O)c1cnn(-c2sc(C(=O)OCC)c(C)c2C(=O)OCC)c1N"
  Unit abbreviation: "%"
  inhibition: -49.4
- Compound: "CN(C)c1ccc(CNCCC2(O)CCOC(C)(C)C2)cc1 (configuration not stated)"
  Unit abbreviation: "%"
  inhibition: 28.2
- Compound: "O=C1NC2=C(C(=O)CCC2)C(c2ccc3ncccc3c2)N1 (configuration not stated)"
  Unit abbreviation: "%"
  inhibition: 8.99
- Compound: "Nn1c(Cc2ccccc2F)nnc1SCC(=O)N1CC(=O)Nc2ccccc21"
  Unit abbreviation: "%"
  inhibition: 36.8
- Compound: "COc1ccc(NC(=O)N2CCN(c3nc(-c4cccc(OC)c4)cs3)CC2)cc1"
  Unit abbreviation: "%"
  inhibition: -56.5
- Compound: "C=CCOc1nc(N(C)C)nc(N(C)C)n1"
  Unit abbreviation: "%"
  inhibition: 10.6
- Compound: "CCOCCCNC(=O)CN1CCN(Cc2ccccc2C)C1=O"
  Unit abbreviation: "%"
  inhibition: 19.7
- Compound: "COc1ccc(-c2cc3n(n2)CCc2nc4ccccc4n2-3)cc1"
  Unit abbreviation: "%"
  inhibition: -17.1
- Compound: "N#CCCN1CCN(S(=O)(=O)c2ccc(S(=O)(=O)NC3CCCC3)cc2)CC1"
  Unit abbreviation: "%"
  inhibition: 28.4
- Compound: "O=C(NCc1ccc2c(c1)OCO2)c1ccccn1"
  Unit abbreviation: "%"
  inhibition: -28.1
- Compound: "Cc1ccc(S(=O)(=O)c2cc3c(=O)n4ccccc4nc3n(CC3CCCO3)c2=N)cc1C (configuration not stated)"
  Unit abbreviation: "%"
  inhibition: 23.9
- Compound: "O=S(=O)(NC1CCCC1)c1ccccc1Cl"
  Unit abbreviation: "%"
  inhibition: 15.4
- Compound: "COc1ccc(-c2nnc(SCCC(=O)O)n2-c2ccccc2)cc1"
  Unit abbreviation: "%"
  inhibition: 16.4
- Compound: "CN1/C(=C\\C(=O)C(F)F)C(C)(C)c2ccccc21"
  Unit abbreviation: "%"
  inhibition: 17.4
- Compound: "O=C(NCCc1c[nH]c2ccccc12)c1cnc2n(c1=O)CCS2"
  Unit abbreviation: "%"
  inhibition: -79.3
- Compound: "Cc1ccc(-c2nnn(CC(=O)N(Cc3ccco3)C(C(=O)NC(C)(C)C)c3cccs3)n2)o1 (configuration not stated)"
  Unit abbreviation: "%"
  inhibition: 12.3
- Compound: "CCc1ccccc1NC(=O)c1ccoc1C"
  Unit abbreviation: "%"
  inhibition: 17.6
- Compound: "O=C(O)CCn1c(=O)c2ccccc2c2ccccc2c1=O"
  Unit abbreviation: "%"
  inhibition: -9.95
- Compound: "CCC1(C)Cc2c(C#N)c(N)n(N)c(=S)c2CO1 (configuration not stated)"
  Unit abbreviation: "%"
  inhibition: 22.9
- Compound: "Cn1c(=O)c2c(nc(CN3CCCCC3)n2CCc2ccccc2)n(C)c1=O"
  Unit abbreviation: "%"
  inhibition: -8.47
- Compound: "CN(C)c1oc(-c2ccccc2F)nc1C#N"
  Unit abbreviation: "%"
  inhibition: -12.5
- Compound: "CSc1nc(C)c(C(=O)Nc2ccccc2)c(C)c1C#N"
  Unit abbreviation: "%"
  inhibition: 18.5
- Compound: "Clc1ccc2c(c1)[C@H]1OCC[C@H]1[C@@H](c1ccco1)N2"
  Unit abbreviation: "%"
  inhibition: -122
- Compound: "NC(=O)NC(c1ccccc1)c1ccccc1F (configuration not stated)"
  Unit abbreviation: "%"
  inhibition: 25.9
